Biological target: Sodium-dependent serotonin transporter (Homo sapiens)
Sequence (P31645 whole entry): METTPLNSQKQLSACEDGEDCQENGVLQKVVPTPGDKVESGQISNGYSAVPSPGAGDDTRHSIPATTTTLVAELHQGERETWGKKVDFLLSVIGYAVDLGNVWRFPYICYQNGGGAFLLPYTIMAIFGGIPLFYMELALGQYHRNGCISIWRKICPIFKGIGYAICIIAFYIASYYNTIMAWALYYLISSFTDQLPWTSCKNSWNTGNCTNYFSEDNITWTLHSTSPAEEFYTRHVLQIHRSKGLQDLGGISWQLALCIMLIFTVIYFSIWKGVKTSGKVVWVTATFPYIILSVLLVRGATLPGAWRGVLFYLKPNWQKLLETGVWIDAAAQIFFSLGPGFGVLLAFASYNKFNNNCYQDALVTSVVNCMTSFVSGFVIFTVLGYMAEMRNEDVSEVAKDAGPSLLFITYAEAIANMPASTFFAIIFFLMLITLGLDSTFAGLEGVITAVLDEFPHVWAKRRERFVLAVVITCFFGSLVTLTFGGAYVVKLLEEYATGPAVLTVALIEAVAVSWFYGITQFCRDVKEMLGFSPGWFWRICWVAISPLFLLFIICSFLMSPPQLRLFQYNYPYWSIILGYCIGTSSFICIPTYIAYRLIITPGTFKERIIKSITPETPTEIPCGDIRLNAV
Assay: Inhibition of [125I]RTI-55 binding to human SERT in clonal cells
In plain terms, low Kd, meaning strictly below 2 µM, gives class 1, and everything else gives class 0.

O=C(/C=C/c1ccccc1Cl)N1CCN(CCOC(c2ccc(F)cc2)c2ccc(F)cc2)CC1 | class 1
O=C(CN1CCN(CCCc2ccccc2)CC1)N(Cc1ccccc1)c1ccccc1 | class 0
O=C(CCCN1CCN(CCCc2ccccc2)CC1)N(Cc1ccccc1)c1ccccn1 | class 1
Cc1ccc(/C=C/CN2CCN(CCOC(c3ccc(F)cc3)c3ccc(F)cc3)CC2)cc1 | class 1

Please indicate whether the reported Kd of `Brc1ccc(CN(CCN2CCN(CCCc3ccccc3)CC2)c2ccc(Br)cc2)cc1` is strictly below 2 µM.
class 1
